For each entry below, report its PBM binding z-score value.
- System: PPARg:RXRa 270nM:90nM, anti-RXR (NR concentration 270 nM, RXRa partner concentration 90 nM)
- Test: PBM binding z-score (relative to random genomic background probes); higher = stronger binding; sequences stand for … in GC…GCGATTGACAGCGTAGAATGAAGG
One number for each entry.

# Record sequence, Readout value
measured = [
    ("GTTATTAGTTGAAAGGGCAACCGAATGATTCTCG", 5.52),
    ("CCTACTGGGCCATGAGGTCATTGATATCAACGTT", 4.66),
    ("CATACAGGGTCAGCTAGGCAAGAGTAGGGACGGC", 3.02),
    ("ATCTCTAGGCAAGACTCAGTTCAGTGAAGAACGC", -0.156),
    ("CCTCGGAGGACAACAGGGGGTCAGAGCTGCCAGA", 1.92),
]

Please state PBM binding z-score for every sequence in the list that follows.
1. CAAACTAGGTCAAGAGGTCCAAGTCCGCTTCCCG
2. CAAACTAGATCAAAGGTCAAAGTCGAGCCAACCA
3. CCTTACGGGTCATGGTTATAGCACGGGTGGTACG
4. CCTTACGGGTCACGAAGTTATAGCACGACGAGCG

Output:
1: 6.68; 2: 10.2; 3: 4.19; 4: 5.64

Please report PBM binding z-score for every entry that follows.
1. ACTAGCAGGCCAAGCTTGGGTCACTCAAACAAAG
2. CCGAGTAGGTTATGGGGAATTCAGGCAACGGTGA
3. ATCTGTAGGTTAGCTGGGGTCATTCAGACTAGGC
4. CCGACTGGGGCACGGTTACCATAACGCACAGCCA
5. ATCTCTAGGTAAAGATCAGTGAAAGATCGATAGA
6. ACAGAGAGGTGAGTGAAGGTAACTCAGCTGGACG
7. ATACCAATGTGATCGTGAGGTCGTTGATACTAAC

Output:
[0.21, 2.43, 3.26, 0.982, 1.14, 0.54, 0.198]

Each sequence below has a reported value. Please supply its PBM binding z-score.
1. CTCGGAAGGTCGTGCTCAGGTGAGTATACCAAAC
2. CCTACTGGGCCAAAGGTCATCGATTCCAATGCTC
3. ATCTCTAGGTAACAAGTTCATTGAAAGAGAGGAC
4. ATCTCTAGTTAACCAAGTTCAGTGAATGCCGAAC
5. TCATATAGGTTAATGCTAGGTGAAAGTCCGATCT

Output:
[1.25, 10.6, 3.03, 0.244, 3.06]

Please state, for each entry, its recorded PBM binding z-score.
1. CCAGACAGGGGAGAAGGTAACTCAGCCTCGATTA
2. TTACCAAGGTGAAGGTAGTTGATCCCTCTGTAGA
3. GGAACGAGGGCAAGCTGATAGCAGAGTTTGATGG

Output:
1: 0.0493; 2: 1.29; 3: 0.733

---

Give PBM binding z-score for every item shown.
- Tested on: PXR:RXRa (NR concentration 270 nM, RXRa partner concentration 90 nM)
- Test: PBM binding z-score (relative to random genomic background probes); higher = stronger binding; sequences stand for … in GC…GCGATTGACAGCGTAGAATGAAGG
Answers are plain numbers.

Below are worked cases with known answers.
# Record sequence, PBM binding z-score
records = [
    ("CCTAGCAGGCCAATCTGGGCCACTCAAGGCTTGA", -1.04),
    ("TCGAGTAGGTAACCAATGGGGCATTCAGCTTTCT", -0.372),
    ("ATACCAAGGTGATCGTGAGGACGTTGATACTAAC", 0.502),
]

Parameter requested: PBM binding z-score. Apply to each item below.
1. TGCATGAGGTTAAAGATCAGGGAACGTGGCGTCG
2. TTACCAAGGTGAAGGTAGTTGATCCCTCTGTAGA
3. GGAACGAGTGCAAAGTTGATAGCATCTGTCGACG
4. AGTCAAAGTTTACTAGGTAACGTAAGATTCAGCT
5. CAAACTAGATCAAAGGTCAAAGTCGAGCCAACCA

Output:
1. 2.23
2. 0.456
3. 0.715
4. 0.455
5. 5.7

Give PBM binding z-score for each of the items listed below.
1. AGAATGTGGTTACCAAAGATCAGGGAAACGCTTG
2. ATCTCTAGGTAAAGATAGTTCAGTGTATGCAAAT
3. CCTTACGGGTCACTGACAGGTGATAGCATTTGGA
4. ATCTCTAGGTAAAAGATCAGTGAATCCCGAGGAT
5. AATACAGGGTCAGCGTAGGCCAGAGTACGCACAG

Output:
-0.353
1.32
4.3
-0.177
3.51

Provide each entry's PBM binding z-score from the list below.
1. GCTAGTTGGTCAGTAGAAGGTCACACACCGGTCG
2. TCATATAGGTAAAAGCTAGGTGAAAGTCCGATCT
3. TCTAGTTGGTCTCGGAGGTCACACACGACGGGTA
4. ATCTCTAGGTAAAGCTCAGTGAAAGATCGATAGA
5. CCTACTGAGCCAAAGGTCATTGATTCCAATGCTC
6. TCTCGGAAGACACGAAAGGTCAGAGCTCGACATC

Output:
1: 3.18; 2: 0.255; 3: 4.11; 4: -0.131; 5: 5.49; 6: 3.58
